Test target: MSI1 full-length (mouse, UniProt Q61474 1-362)
Sequence (Q61474 whole entry): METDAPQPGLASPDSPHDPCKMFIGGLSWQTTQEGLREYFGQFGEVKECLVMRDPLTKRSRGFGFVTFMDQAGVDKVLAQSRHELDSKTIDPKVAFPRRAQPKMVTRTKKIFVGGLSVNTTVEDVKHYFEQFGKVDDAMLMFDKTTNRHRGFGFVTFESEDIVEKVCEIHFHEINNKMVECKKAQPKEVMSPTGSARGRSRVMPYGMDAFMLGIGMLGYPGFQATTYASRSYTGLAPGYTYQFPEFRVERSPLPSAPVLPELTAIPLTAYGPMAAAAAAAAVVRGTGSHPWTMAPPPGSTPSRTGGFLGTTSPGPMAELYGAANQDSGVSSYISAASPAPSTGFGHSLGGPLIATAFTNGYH
Measurement description: nsRBNS (natural sequence RNA bind-n-seq); RBNS binding buffer (assumed for nsRBNS): 25 mM Tris pH 7.5, 150 mM KCl, 3 mM MgCl2, 0.01% Triton X-100, 500 ug/ml BSA, 20 U/ml SUPERase-In, 4 C; UNK is unkempt and MSI1 is Musashi-1; names of the RNAs are library labels; protein concentration not given here; high values mean tight binding
Over roughly 5,800 sequences, “enrichment r” has its median near 0.54; the highest 2% begin near 16. This excerpt belongs to a sample that is enriched for the highest values.
Label rule, in plain words: binding signal of 7 enrichment R and up is t, under 7 enrichment R is f.

Example entries begin here.
• ENSG00000136451:be:win_2301|3pUTR|ENSG00000136451|bound_else_gene|NA|bound_elsewhere_windowed (ssRNA) RNA: GGGAGUUCUACAGUCCGACGAUCAAAAAUCUACAAAUUGUGUUUUGCUAAGAAAAGCCUCAACUGACAGAGGAGAAGUCAAGUGUGUGGACAGGCAAGCUCCUAAUAAACAGAGUCCAGUGGGAUUCCUAUUUAGGAGCCAAGCAACAGAGGAUUGAGCAUCA = f
• chr2:216672374:216672548:-|3pUTR|ENSG00000115461|msi1|FALSE|unique (ssRNA) RNA: GGGAGUUCUACAGUCCGACGAUCUUUUUCUUUUUUUUUUUGAAGACAGCAAUAACCACAGUACAUAUUACUGUAGUUCUCUAUAGUUUUACAUACAUUCAUACCAUAACUCUGUUCUCUCCUCUUUUUUGUUUUCAACUUUAACAACAGAGGAUUGAGCAUCA = t
• chr11:27368498:27368690:-|CDS|ENSG00000205213|msi1|FALSE|unique (ssRNA) RNA: GGGAGUUCUACAGUCCGACGAUCACCCCUUUGUUUGCCAUUUCCUACAGGUGAAACGCCAUCAUUAGGAUUCACUGUAACGUUAGUGCUAUUAAACUCACUAGCAUUUUUAUUAAUGGCCGUUAUCUACACUAAACUAUACUGCAACAGAGGAUUGAGCAUCA = f

Q: Would you say chr1:93361585:93361687:+|3pUTR|ENSG00000117505|unk|total|mutant (ssRNA) RNA: GGGAGUUCUACAGUCCGACGAUCUUUAACUUGCCGUUACCGUUUACUUAUUGUUUUCCGAAUUACUUUUACAUUUUCCCAACCCGAUGGCCCCGAGUCCAACAUUACCUUUUGAGAUGACAUUAUUGUCUCCAUAAUUGAGUGCAACAGAGGAUUGAGCAUCA shows binding signal at minimum 7 enrichment R?
Ans: f

Q: Continue with chr1:93361585:93361687:+|3pUTR|ENSG00000117505|unk|FALSE|unique (ssRNA) RNA: GGGAGUUCUACAGUCCGACGAUCUUUAACUUGUAGUUAUAGUUUACUUAUUGUUUUUAGAAUUACUUUUACAUUUUCCCAACUAGAUGGCCUAGAGUCCAACAUUACCUUUUGAGAUGACAUUAUUGUCUCCAUAAUUGAGUGCAACAGAGGAUUGAGCAUCA
Ans: t
